Biological target: T1, EsCas13d, nuclease-dead (Eubacterium siraeum, UniProt B0MS50, R295A;H300A;R849A;H854A)
T1 sequence: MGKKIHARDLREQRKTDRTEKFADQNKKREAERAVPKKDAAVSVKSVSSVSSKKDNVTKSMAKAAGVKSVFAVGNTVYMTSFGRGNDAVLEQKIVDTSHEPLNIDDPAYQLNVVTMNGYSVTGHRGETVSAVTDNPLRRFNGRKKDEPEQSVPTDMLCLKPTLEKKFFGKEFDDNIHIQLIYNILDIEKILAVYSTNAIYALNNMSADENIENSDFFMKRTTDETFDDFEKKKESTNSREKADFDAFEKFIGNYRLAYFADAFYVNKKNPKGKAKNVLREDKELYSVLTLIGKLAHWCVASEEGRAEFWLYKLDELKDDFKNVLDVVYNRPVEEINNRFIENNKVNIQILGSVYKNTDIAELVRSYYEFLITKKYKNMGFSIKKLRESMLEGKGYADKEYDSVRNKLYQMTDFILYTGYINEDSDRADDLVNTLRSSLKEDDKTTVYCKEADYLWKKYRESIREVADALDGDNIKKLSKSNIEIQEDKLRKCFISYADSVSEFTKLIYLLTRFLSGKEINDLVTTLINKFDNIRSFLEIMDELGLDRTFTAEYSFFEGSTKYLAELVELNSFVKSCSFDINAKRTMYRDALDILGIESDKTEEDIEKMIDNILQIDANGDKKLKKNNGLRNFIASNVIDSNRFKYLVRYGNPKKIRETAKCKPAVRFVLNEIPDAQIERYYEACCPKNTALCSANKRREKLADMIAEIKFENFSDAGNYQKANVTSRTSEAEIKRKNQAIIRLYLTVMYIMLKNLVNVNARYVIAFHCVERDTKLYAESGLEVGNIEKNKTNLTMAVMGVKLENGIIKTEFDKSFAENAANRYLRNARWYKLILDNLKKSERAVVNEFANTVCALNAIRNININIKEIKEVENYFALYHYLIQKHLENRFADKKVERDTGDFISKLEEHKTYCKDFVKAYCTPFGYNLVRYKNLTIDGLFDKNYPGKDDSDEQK
Assay: crRNA (strand 1, pre-loaded); Mg2+; 40 mM Tris-HCl pH 7.5, 150 mM NaCl, 6 mM MgCl2, 1 mM DTT, 0.1% Tween-20, 0.2 mg/ml BSA; 25 C; 10 min per concentration, then washed
Details: tags: His6-TwinStrep-SUMO cleaved; N-terminal SNAP kept (SNAP-Surface 488); label: 3' end held by stalled T7 RNA polymerase
EXPERIMENTAL READOUT: Kd (nM)
Answers are plain numbers, in nM.

Illustrative cases are given below, each with its answer.
INSERT INTO results (binder, obs_value) VALUES
  ('target 1 C6U,G12C (mixed) RNA 1: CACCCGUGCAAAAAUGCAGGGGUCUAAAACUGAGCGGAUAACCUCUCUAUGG RNA 2: GGGAAUGGAUCCACAUCUACGAAUUCGUACCAUAGAGAGCUUAUCUGCUCACCGAGAUCGGAAGAGCACACGU', 12.9),
  ('target 2 MT 5''PFS UGA 3''PFS AAC (mixed) RNA 1: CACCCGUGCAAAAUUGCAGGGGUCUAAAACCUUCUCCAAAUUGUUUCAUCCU RNA 2: GGGAAUGGAUCCACAUCUACGAAUUCUGAAGGAUGAAACAAUUUGGAGAAGAACAGAUCGGAAGAGCACACGU', 10.1),
  ('target 1 A16C,C21A (mixed) RNA 1: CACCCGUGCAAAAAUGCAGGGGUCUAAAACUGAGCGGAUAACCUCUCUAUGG RNA 2: GGGAAUGGAUCCACAUCUACGAAUUCGUACAAUAGCGAGGUUAUCCGCUCACCGAGAUCGGAAGAGCACACGU', 66),
  ('target 3 insA 3'' of 22,insG 3'' of 7 (mixed) RNA 1: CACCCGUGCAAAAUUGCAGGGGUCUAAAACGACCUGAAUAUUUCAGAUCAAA RNA 2: GGGAAUGGAUCCACAUCUACGAAUUCGUUUAUUGAUCUGAAAUAUUGCAGGUCUGCAGAUCGGAAGAGCACACGU', 96),
  ('target 1 MT 5''PFS CUA 3''PFS AUU (mixed) RNA 1: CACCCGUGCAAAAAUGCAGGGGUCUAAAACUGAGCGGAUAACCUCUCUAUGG RNA 2: GGGAAUGGAUCCACAUCUACGAAUUCCUACCAUAGAGAGGUUAUCCGCUCAAUUAGAUCGGAAGAGCACACGU', 6.05);

Go through the items and report each one's Kd.
1. target 1 MT 5'PFS UCG 3'PFS AUA (mixed) RNA 1: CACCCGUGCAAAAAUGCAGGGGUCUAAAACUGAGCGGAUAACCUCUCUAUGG RNA 2: GGGAAUGGAUCCACAUCUACGAAUUCUCGCCAUAGAGAGGUUAUCCGCUCAAUAAGAUCGGAAGAGCACACGU
2. target 1 insU 3' of 18,insG 3' of 8 (mixed) RNA 1: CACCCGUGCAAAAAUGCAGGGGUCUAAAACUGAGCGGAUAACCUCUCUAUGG RNA 2: GGGAAUGGAUCCACAUCUACGAAUUCGUACCAUAUGAGAGGUUAUGCCGCUCACCGAGAUCGGAAGAGCACACGU
3. target 1 MT 5'PFS UCC 3'PFS CUG (mixed) RNA 1: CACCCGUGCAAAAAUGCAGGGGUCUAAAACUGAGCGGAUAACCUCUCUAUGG RNA 2: GGGAAUGGAUCCACAUCUACGAAUUCUCCCCAUAGAGAGGUUAUCCGCUCACUGAGAUCGGAAGAGCACACGU
4. target 1 MT 5'PFS GGC 3'PFS CUU (mixed) RNA 1: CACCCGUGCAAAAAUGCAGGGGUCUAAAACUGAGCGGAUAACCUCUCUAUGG RNA 2: GGGAAUGGAUCCACAUCUACGAAUUCGGCCCAUAGAGAGGUUAUCCGCUCACUUAGAUCGGAAGAGCACACGU
5. target 3 insA 3' of 7 (mixed) RNA 1: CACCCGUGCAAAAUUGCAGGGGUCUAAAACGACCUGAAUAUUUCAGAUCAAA RNA 2: GGGAAUGGAUCCACAUCUACGAAUUCGUUUUUGAUCUGAAAUAUUACAGGUCUGCAGAUCGGAAGAGCACACGU
6. target 3 G4C,C6U (mixed) RNA 1: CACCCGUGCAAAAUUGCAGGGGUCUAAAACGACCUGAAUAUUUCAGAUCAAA RNA 2: GGGAAUGGAUCCACAUCUACGAAUUCGUUUUUGAUCUGAAAUAUUUACGUCUGCAGAUCGGAAGAGCACACGU
7. target 3 insA 3' of 21,insA 3' of 2 (mixed) RNA 1: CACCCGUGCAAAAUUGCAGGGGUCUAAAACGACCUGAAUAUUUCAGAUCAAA RNA 2: GGGAAUGGAUCCACAUCUACGAAUUCGUUUUAUGAUCUGAAAUAUUCAGGUACUGCAGAUCGGAAGAGCACACGU
8. target 1 insA 3' of 22,insC 3' of 14 (mixed) RNA 1: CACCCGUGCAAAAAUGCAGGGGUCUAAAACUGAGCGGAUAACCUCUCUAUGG RNA 2: GGGAAUGGAUCCACAUCUACGAAUUCGUACACAUAGAGACGGUUAUCCGCUCACCGAGAUCGGAAGAGCACACGU

Reply:
1: 37.5; 2: 41; 3: 14.5; 4: 11.3; 5: 44; 6: 20.2; 7: 30.3; 8: 36

Go through the items and report each one's Kd.
1. target 1 insG 3' of 14,insU 3' of 2 (mixed) RNA 1: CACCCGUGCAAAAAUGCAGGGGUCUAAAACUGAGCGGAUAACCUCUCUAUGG RNA 2: GGGAAUGGAUCCACAUCUACGAAUUCGUACCAUAGAGAGGGUUAUCCGCUCUACCGAGAUCGGAAGAGCACACGU
2. target 1 insG 3' of 10,insG 3' of 1 (mixed) RNA 1: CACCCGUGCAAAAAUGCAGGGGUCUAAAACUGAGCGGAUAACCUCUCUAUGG RNA 2: GGGAAUGGAUCCACAUCUACGAAUUCGUACCAUAGAGAGGUUGAUCCGCUCAGCCGAGAUCGGAAGAGCACACGU

Reply:
1. 12.5
2. 22.5

src = paper PMC10786891
